src = patent US11019818B2

Parameter Plant response rating, Galium: see the listing below.
- System: galium (catchweed bedstraw, Galium aparine)
- experimental.details: Test A postemergence, galium
- Type: in vivo
- settings: 31 g ai/ha, 0 to 100 scale (0 no effect, 100 complete control), approx. 10 d
Give the figure by itself; no unit, no explanation.

> print(dat)
                                   molecule  endpoint.result
1  CN1C[C@H](c2ccc(C(F)(F)F)cc2)[C@@](CO)(C(=O)Nc2cccc(F)c2F)C1=O               40
2  CC(=O)OC[C@@]1(C(=O)Nc2cccc(F)c2F)C(=O)N(C)C[C@@H]1c1ccc(C(F)(F)F)cc1                0
3  CCNC(=O)C1(C(=O)Nc2cccc(F)c2F)C(=O)N(C)CC1c1ccc(C(F)(F)F)cc1 (stereo not shown)                0
4  CN1C[C@H](c2ccc(C(F)(F)F)cc2)[C@](CO)(C(=O)Nc2cccc(F)c2F)C1=O               20
5  CC(C)NC(=O)C1(C(=O)Nc2cccc(F)c2F)C(=O)N(C)CC1c1ccc(C(F)(F)F)cc1 (stereo not shown)                0
6  CC(=O)[C@@]1(C(=O)Nc2cccc(F)c2F)C(=O)N(C)C[C@@H]1c1ccc(C(F)(F)F)cc1               50

Okay, next one:
Problem: I have this molecule here, CN(C)CC1(C(=O)Nc2cccc(F)c2F)C(=O)N(C)CC1c1ccc(C(F)(F)F)cc1 (stereo not shown) , and I need its recorded Plant response rating, Galium.
Solution: 60

----------
Entries and their Plant response rating, Pigweed
- System: pigweed (Amaranthus retroflexus)
- experimental.details: Test A preemergence, pigweed
- Format: in vivo
- settings: 125 g ai/ha, 0 to 100 scale (0 no effect, 100 complete control), approx. 10 d
Note: the reply should be a number with no unit written.

> print(dat)
                                   compound                    assayed.system               reported.endpoint  endpoint.result
1  CC(=O)OC[C@@]1(C(=O)Nc2cccc(F)c2F)C(=O)N(C)C[C@@H]1c1ccc(C(F)(F)F)cc1  pigweed (Amaranthus retroflexus)  Plant response rating, Pigweed               80
2  CC(=O)[C@@]1(C(=O)Nc2cccc(F)c2F)C(=O)N(C)C[C@@H]1c1ccc(C(F)(F)F)cc1  pigweed (Amaranthus retroflexus)  Plant response rating, Pigweed               90
3  CN(C)CC1(C(=O)Nc2cccc(F)c2F)C(=O)N(C)CC1c1ccc(C(F)(F)F)cc1 (stereo not shown)  pigweed (Amaranthus retroflexus)  Plant response rating, Pigweed               80
4  CN1C[C@H](c2ccc(C(F)(F)F)cc2)[C@](CO)(C(=O)Nc2cccc(F)c2F)C1=O  pigweed (Amaranthus retroflexus)  Plant response rating, Pigweed               90
5  CN1C[C@H](c2ccc(C(F)(F)F)cc2)[C@@](CO)(C(=O)Nc2cccc(F)c2F)C1=O  pigweed (Amaranthus retroflexus)  Plant response rating, Pigweed               60
6  CCNC(=O)C1(C(=O)Nc2cccc(F)c2F)C(=O)N(C)CC1c1ccc(C(F)(F)F)cc1 (stereo not shown)  pigweed (Amaranthus retroflexus)  Plant response rating, Pigweed               10

Could you now look at the following compound, please?
Problem: Item CC(C)NC(=O)C1(C(=O)Nc2cccc(F)c2F)C(=O)N(C)CC1c1ccc(C(F)(F)F)cc1 (stereo not shown) has what recorded Plant response rating, Pigweed?
Solution: 0
